- SYSTEM: Lysine-specific demethylase 4A (Homo sapiens) (UniProt O75164)
- Sequence (O75164 whole entry, looked up, the tested form may be a part): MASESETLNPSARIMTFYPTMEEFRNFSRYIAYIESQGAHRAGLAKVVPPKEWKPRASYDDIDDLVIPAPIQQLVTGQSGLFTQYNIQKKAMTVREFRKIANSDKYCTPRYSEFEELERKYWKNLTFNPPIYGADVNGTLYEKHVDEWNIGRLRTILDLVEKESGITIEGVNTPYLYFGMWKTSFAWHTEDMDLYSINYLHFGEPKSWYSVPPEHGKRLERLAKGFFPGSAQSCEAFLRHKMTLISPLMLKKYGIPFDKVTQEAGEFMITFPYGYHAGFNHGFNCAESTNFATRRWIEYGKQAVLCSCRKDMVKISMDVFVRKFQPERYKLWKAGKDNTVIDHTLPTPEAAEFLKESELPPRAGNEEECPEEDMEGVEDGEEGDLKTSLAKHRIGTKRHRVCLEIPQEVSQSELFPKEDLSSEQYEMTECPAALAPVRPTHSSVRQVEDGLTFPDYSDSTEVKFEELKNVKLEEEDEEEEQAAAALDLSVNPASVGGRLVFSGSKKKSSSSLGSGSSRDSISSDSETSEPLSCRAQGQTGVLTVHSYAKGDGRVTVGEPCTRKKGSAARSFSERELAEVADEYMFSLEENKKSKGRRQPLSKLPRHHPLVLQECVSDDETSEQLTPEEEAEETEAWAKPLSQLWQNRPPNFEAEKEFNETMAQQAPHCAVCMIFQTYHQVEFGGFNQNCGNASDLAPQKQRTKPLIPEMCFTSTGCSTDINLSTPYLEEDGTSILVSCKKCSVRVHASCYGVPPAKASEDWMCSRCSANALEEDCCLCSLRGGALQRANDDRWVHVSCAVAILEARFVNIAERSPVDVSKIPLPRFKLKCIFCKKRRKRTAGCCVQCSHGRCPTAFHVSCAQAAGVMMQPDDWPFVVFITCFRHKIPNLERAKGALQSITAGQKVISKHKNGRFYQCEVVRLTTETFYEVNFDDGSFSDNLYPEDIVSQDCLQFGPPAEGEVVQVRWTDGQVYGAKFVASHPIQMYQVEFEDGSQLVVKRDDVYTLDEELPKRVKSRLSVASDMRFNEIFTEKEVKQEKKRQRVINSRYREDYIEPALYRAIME
- PROTOCOL_NOTES: qHTS Assay for Inhibitors of JMJD2A-Tudor Domain; also: nearly all actives have a fitted effect of over 50% in size
- CONDITION_CONTEXT: AlphaScreen JMJD2A-Tudor / H3K4me3 peptide binding; series mostly up to 114 µM
Among all 390,000 compounds or so, about 17,000 (4.4%) were called active. Roughly 8% stayed inconclusive and do not appear here. Calls follow the shape of the dose curve; as a rule, active = well fitted inhibition curve with a large enough effect; inconclusive = small, poorly fitted or top-dose-only effect; inactive = no such curve, though single readings can be large or run the other way. The sample as a whole holds a higher share of actives than the screen did.
The reply should name one outcome from active, inactive

1) COc1cccc2sc(NNC(=O)c3nc4ccccc4s3)nc12 : active
2) CCOC(=O)C1=C(CN2CCc3ccccc32)NC(=O)NC1c1cccc([N+](=O)[O-])c1 (stereo not given) : active
3) Cn1nc(-c2ccccc2)c2cc([N+](=O)[O-])ccc21 : inactive

Q) Name the outcome recorded for Cc1cc(C)c(NC(=O)c2cc3sc(Cl)cc3n2C)c(C)c1 in the assay.
A) inactive

Q) Name the outcome recorded for O=C1CC(c2ccccc2)=NN1c1ccc([N+](=O)[O-])cc1 in the assay.
A) active

Q) Name the outcome recorded for Cc1c(CCNC(=O)c2ccc(C(F)(F)F)cc2)sc2nc(-c3ccc(F)cc3)nn12 in the assay.
A) inactive

###

- SYSTEM: Lysine-specific demethylase 4A (Homo sapiens) (UniProt O75164)
- PROTOCOL_NOTES: qHTS Assay for Inhibitors of JMJD2A-Tudor Domain; also: nearly all actives have a fitted effect of over 50% in size
- CONDITION_CONTEXT: AlphaScreen JMJD2A-Tudor / H3K4me3 peptide binding; series mostly up to 114 µM
The campaign covered roughly 390,000 compounds. About 17,000 (4.4%) were called active. Inconclusive results (about 8%) are left out. Calls follow the shape of the dose curve; as a rule, active = well fitted inhibition curve with a large enough effect; inconclusive = small, poorly fitted or top-dose-only effect; inactive = no such curve, though single readings can be large or run the other way. The full list was thinned out, with actives kept by preference.
The reply should name one outcome from yes (1) (active), no (0) (inactive)

1) CCc1cccc(C)c1NC(=O)COC(=O)CNC(=O)c1cccs1 : no (0)

Q) Name the outcome recorded for O=S(=O)(NCCc1ccccc1)c1ccccc1 in the assay.
A) no (0)

Q) Name the outcome recorded for COc1ccc(CCNc2nc(-c3ccc(Cl)cc3)cc(C(F)(F)F)n2)cc1OC in the assay.
A) no (0)

Q) Name the outcome recorded for COCCN(Cc1ccco1)C(=O)Cn1ncc2c([nH]c3ccccc32)c1=O in the assay.
A) no (0)

Q) Name the outcome recorded for S=c1[nH]nc(NCCc2ccccc2)s1 in the assay.
A) yes (1)

Q) Name the outcome recorded for COc1ccc(NC(=O)C2CCCN(S(=O)(=O)c3c(C)[nH]c(=O)[nH]c3=O)C2)c(OC)c1 (stereo not drawn) in the assay.
A) no (0)

Q) Name the outcome recorded for CCc1c(C)sc(NC(=O)c2ccc(Br)o2)c1C(=O)OC in the assay.
A) no (0)

###

- SYSTEM: Lysine-specific demethylase 4A (Homo sapiens)
- PROTOCOL_NOTES: qHTS Assay for Inhibitors of JMJD2A-Tudor Domain; also: nearly all actives have a fitted effect of over 50% in size
- CONDITION_CONTEXT: AlphaScreen JMJD2A-Tudor / H3K4me3 peptide binding; series mostly up to 114 µM
Hit rate of the full screen: of about 390,000 compounds, about 17,000 (4.4%) were called active. Another 8% or so got no clear call; they are omitted. Calls come from the whole dose curve; as a rule, active = well fitted inhibition curve with a large enough effect; inconclusive = small, poorly fitted or top-dose-only effect; inactive = no such curve, though single readings can be large or run the other way. The sample holds actives, similar compounds and a random draw of the others, so the mix is not that of the screen.
The reply should name one outcome from active, inactive

# count of solved cases: 3
1) CCCC(=O)N1CCN(c2nc3c(OC)ccc(C)c3s2)CC1 : inactive
2) CCc1ccccc1NC(=O)CSc1nc(C)c(C(=O)Nc2ccccc2)c(-c2ccc(Cl)cc2)c1C#N : inactive
3) c1ccc(COc2ccccc2CNCc2cccnc2)cc1 : inactive

Q) Name the outcome recorded for Cc1csc(NC(=O)CN2CCCCCC2)n1 in the assay.
A) active

Q) Name the outcome recorded for COc1ccc(-c2cc(C(F)(F)F)n3nc(-c4ccccc4)cc3n2)cc1OC in the assay.
A) inactive

Q) Name the outcome recorded for O=C(Nc1ccc(Oc2ccccc2)cc1)C1CCN(S(=O)(=O)c2ccc(Cl)cc2)CC1 in the assay.
A) inactive

Q) Name the outcome recorded for CCOC(=O)c1c(NC(=O)/C=C/c2ccc(OC)cc2)sc2c1CCC(C)C2 (stereo unspecified) in the assay.
A) inactive

Q) Name the outcome recorded for Cc1cc(C)c(NC(=O)CN2CCCCCC2)c(C)c1 in the assay.
A) inactive

Q) Name the outcome recorded for Cc1ccc(NC(=O)c2cc3cc(C)ccc3n2C)cc1 in the assay.
A) inactive

Q) Name the outcome recorded for Cc1cccc(OCCCC(=O)Nc2sc3c(c2C(N)=O)CCC(C)C3)c1 (stereo unspecified) in the assay.
A) inactive

Q) Name the outcome recorded for Cc1nn(-c2nc(-c3ccccc3)cc(C(F)(F)F)n2)c(C)c1Cl in the assay.
A) inactive

###

- SYSTEM: Lysine-specific demethylase 4A (Homo sapiens)
- PROTOCOL_NOTES: qHTS Assay for Inhibitors of JMJD2A-Tudor Domain; also: nearly all actives have a fitted effect of over 50% in size; also: potency is read from the fitted curve at half-maximal effect
- CONDITION_CONTEXT: AlphaScreen JMJD2A-Tudor / H3K4me3 peptide binding; series mostly up to 114 µM
Screen size: about 390,000 compounds; about 17,000 (4.4%) were called active. Roughly 8% stayed inconclusive and do not appear here. This is one part of a sample in which actives are shown more often than they occur.
METRIC_NAME: Potency

As a guide, the following entries are already answered.
1) CCc1nnc(SCC(=O)Nc2cc(OC)ccc2OC)nc1CC : inactive
2) CCn1c2ccccc2c2nnc(SCC(=O)O)nc21 : inactive
3) O=C(O)c1cccnc1Sc1ncnc2sc3c(c12)CCC3 : 31.6 µM (active)
4) CCOC(=O)c1c(NC(=O)CSc2nnc(CN3CCOCC3)n2C)sc2c1CCCC2 : inactive

Q) Please tell me: Potency of Cc1ccccc1NC(=O)Cn1cc(C(=O)c2cccs2)c2ccccc21 , system Lysine-specific demethylase 4A (Homo sapiens)?
A) inactive

Q) Please tell me: Potency of CC1CCCN(S(=O)(=O)c2ccc3[nH]c(=O)cc(C(=O)NCCc4ccc(Cl)cc4)c3c2)C1 (centres undefined) , system Lysine-specific demethylase 4A (Homo sapiens)?
A) inactive

Q) Please tell me: Potency of Cc1ccc(NC(=O)c2oc3ccc(S(=O)(=O)N4CCCCC4)cc3c2C)cc1Cl , system Lysine-specific demethylase 4A (Homo sapiens)?
A) inactive

Q) Please tell me: Potency of COc1ccc(Cn2ccnc2SCC(=O)NCc2ccco2)cc1 , system Lysine-specific demethylase 4A (Homo sapiens)?
A) inactive

Q) Please tell me: Potency of CC(C)c1ccc(OCC(O)Cn2cnc3ccccc32)cc1 (centres undefined) , system Lysine-specific demethylase 4A (Homo sapiens)?
A) inactive

###

- SYSTEM: Lysine-specific demethylase 4A (Homo sapiens)
- PROTOCOL_NOTES: qHTS Assay for Inhibitors of JMJD2A-Tudor Domain; also: nearly all actives have a fitted effect of over 50% in size; also: potency is read from the fitted curve at half-maximal effect
- CONDITION_CONTEXT: AlphaScreen JMJD2A-Tudor / H3K4me3 peptide binding; series mostly up to 114 µM
Hit rate of the full screen: of about 390,000 compounds, about 17,000 (4.4%) were called active. Another 8% or so got no clear call; they are omitted. The full list was thinned out, with actives kept by preference.
METRIC_NAME: Potency

1) CCN(C(=O)CSc1nnc(C)n2c1cc1occc12)c1ccccc1 : inactive
2) O=C(Nc1ccc(F)cc1F)N1CCCN(CCOc2ccccc2)CC1 : inactive
3) Clc1ccccc1-c1cc(COc2ccc3ccccc3c2)no1 : inactive
4) CCN(CC)C(=O)CSc1nc2ccsc2c(=O)n1Cc1ccccc1Cl : inactive
5) C/C=C(\C)C(=O)N1CC2(CC(c3cccc(NC(=O)CCCCC)c3)=NO2)C[C@@H]1C(N)=O (stereo not given in full) : inactive
6) CC(C)(c1ccccc1)c1ccc(OCCN2CCCC2)cc1 : 20 µM (active)
7) O=C(Nc1ccc(S(=O)(=O)N2CCC(c3nc4ccccc4s3)CC2)cc1)c1ccccc1F : inactive
8) CCC(=O)Nc1cccc(C(=O)OCc2cc(=O)n3nc(CC)sc3n2)c1 : inactive

Q) Recorded Potency for O=C(CCN1CCc2ccccc2C(O)(c2ccccc2)C1)c1ccc2c(c1)OCCO2 (stereo not given) , please?
A) 79.4 µM (active)

Q) Recorded Potency for C=C(C)C(=O)Nc1cccc(C2=NOC3(C2)C[C@H](C(N)=O)N(C(=O)C(c2ccccc2)c2ccccc2)C3)c1 (stereo not given in full) , please?
A) 11.2 µM (active)

###

- SYSTEM: Lysine-specific demethylase 4A (Homo sapiens)
- PROTOCOL_NOTES: qHTS Assay for Inhibitors of JMJD2A-Tudor Domain; also: nearly all actives have a fitted effect of over 50% in size
- CONDITION_CONTEXT: AlphaScreen JMJD2A-Tudor / H3K4me3 peptide binding; series mostly up to 114 µM
Screen size: about 390,000 compounds; about 17,000 (4.4%) were called active. Roughly 8% stayed inconclusive and do not appear here. Calls come from the whole dose curve; as a rule, active = well fitted inhibition curve with a large enough effect; inconclusive = small, poorly fitted or top-dose-only effect; inactive = no such curve, though single readings can be large or run the other way. The sample as a whole holds a higher share of actives than the screen did.
The reply should name one outcome from active, inactive

# count of solved cases: 3
1) CC(=O)N1CCN(C(=O)c2cc(-c3ccc(C)o3)nc3ccccc23)CC1 : inactive
2) O=C1CC(c2nnc(Cc3ccc(Cl)cc3)o2)CN1c1ccccc1 (stereo unspecified) : inactive
3) O=C(CCC1CCCN(C(=O)Cc2ccc(F)cc2)C1)N1CCN(c2ccccn2)CC1 (stereo unspecified) : inactive

Q) Name the outcome recorded for CCOC(=O)c1c(N)n(-c2cccc(C)c2C)c2nc3ccccc3nc12 in the assay.
A) inactive

Q) Name the outcome recorded for COc1ccc(C2CC(=O)Oc3ccc(C(C)(C)C)cc32)cc1 (stereo unspecified) in the assay.
A) inactive

Q) Name the outcome recorded for CCN(CC)CCC(c1cc(OC)c(OC)c(OC)c1)c1c(OC)cc(OC)c2c(-c3ccccc3)cc(=O)oc12 (stereo unspecified) in the assay.
A) inactive

Q) Name the outcome recorded for COc1cc(Cl)c(C)cc1NC(=O)CCc1nc2cccnc2n1Cc1cccs1 in the assay.
A) inactive

Q) Name the outcome recorded for CCOC(=O)c1c(C)[nH]c(C)c1S(=O)(=O)N1CCC(C(=O)Nc2ccc(C)c(Cl)c2)CC1 in the assay.
A) inactive

Q) Name the outcome recorded for COc1ccc(-c2cc(C(=O)N(C)CC(=O)Nc3ccccc3Cl)c3ccccc3n2)cc1OC in the assay.
A) inactive

Q) Name the outcome recorded for Cc1c(-c2nsc(NC(=O)c3cccc(Cl)c3)n2)nnn1-c1ccccc1C(F)(F)F in the assay.
A) inactive

Q) Name the outcome recorded for COc1cc(OC)c2c(C)cc(=O)oc2c1C(CCN1CCCCC1)c1ccc(N(C)C)cc1 (stereo unspecified) in the assay.
A) active

Q) Name the outcome recorded for CCCOc1ccc(C2c3c(-c4ccccc4O)n[nH]c3C(=O)N2Cc2cccnc2)cc1 (stereo unspecified) in the assay.
A) inactive

Q) Name the outcome recorded for COc1ccc(C(CCN2CCOCC2)c2c(OC)cc(OC)c3c2OC(=O)CC3c2ccc(OC)cc2)cc1 (stereo unspecified) in the assay.
A) active

Q) Name the outcome recorded for C=Cc1ccc(C(=O)N2CCCC(CCC(=O)N3CCN(c4ccccn4)CC3)C2)cc1 (stereo unspecified) in the assay.
A) active

Q) Name the outcome recorded for COc1ccc(C(=O)CSc2nccc(=O)[nH]2)cc1 in the assay.
A) inactive

Q) Name the outcome recorded for CCN(CC)c1ccc(NC(=O)CN2C(=O)c3cccnc3Oc3ccc(Cl)cc32)c(C)c1 in the assay.
A) inactive

Q) Name the outcome recorded for CSc1ccc(NC(=O)Cn2nnnc2-c2ccccc2F)cc1 in the assay.
A) inactive

Q) Name the outcome recorded for COc1ccc(Cn2c(=O)[nH]c3cc(C(=O)N4CCN(C(=O)c5ccco5)CC4)ccc3c2=O)cc1 in the assay.
A) inactive

Q) Name the outcome recorded for CSc1ncccc1C(=O)Nc1ccc(C)cn1 in the assay.
A) inactive

Q) Name the outcome recorded for COCCNC(=O)CSc1nc(-c2ccccc2)[nH]c1-c1ccc(C)cc1 in the assay.
A) inactive

Q) Name the outcome recorded for COc1cc(C2CC(=O)Oc3cc(OC)c(OC)c(OC)c32)cc(OC)c1OC (stereo unspecified) in the assay.
A) inactive

Q) Name the outcome recorded for CCOc1ccccc1NC(=O)Cn1c(=O)n(Cc2ccco2)c(=O)c2sc3ccccc3c21 in the assay.
A) inactive
